Measured values drawn from PubChem BioAssay (NCI) for this set.

# System: NCI-H322M lung
# measurement_description: NCI-60 one-dose screen, 48 h (100 = growth as untreated, 0 = no growth, -100 = all killed)
# condition_set: 10 µM unless noted
This is part of a sample that, as a whole, favours compounds with a hit. Of some 83,000 tested, about 20% had one in any assay.
observable: growth (%)

* O=C(CCCCCCN1CC(=O)N2[C@@H](c3ccccc3Br)c3[nH]c4ccccc4c3C[C@H]2C1=O)NO | 66.1
* Cc1ccccc1Nc1nc(SC(C)C)nc(-c2ccccc2)c1C#N | 70
* Cc1cc(=O)oc2cc(OCCCOc3ccc(/C=C/C(=O)Nc4ccc(Br)cc4)cc3)ccc12 | 94.9
* Cc1ccc(NC(=O)Nc2nc3ccc([N+](=O)[O-])cc3s2)cc1 | 4.58
* Clc1cccc(/C=N/Nc2nc(N/N=C/c3cccc(Cl)c3)nc(N3CCOCC3)n2)c1 | 53.8
* O=C(CCCCCCNC(=O)C(O)(O)C(F)(F)F)Nc1ccc(Cl)cc1 | 44
* Cc1cc(Br)ccc1-n1cc(C#N)c(N)c1C(=O)c1ccc(Br)cc1 | 104
* C#C[C@]1(O)CC[C@H]2[C@@H]3CC=C4c5sc(Nc6ncccc6C)nc5CC[C@]4(C)[C@H]3CC[C@@]21C | 32.8
* O=C(CN1CCN(c2cc(=O)[nH]c3ccc(F)cc23)CC1)N(c1ccccc1)c1ccccc1 | 104
* COc1ccc(Cn2cc(C#N)c(N)c2C(C)=O)cc1 | 98.8
* N#Cc1cnc2ccc(-c3cnc4n[nH]nc4c3)cc2c1N1CCc2cc(F)c(Cl)cc21 | 11.1
* CC1CCN(CC(=O)Nn2c(COc3ccccc3)nc3ccccc3c2=O)CC1 | 95.4
* Brc1cccc(-c2cc(-c3cnc4c(c3)OCCO4)n[nH]2)c1 | 45.2
* c1ccc(-c2cn3c(-c4c[nH]c5ccccc45)csc3n2)cc1 | 85.4
